- EXPERIMENTAL_TARGET: human EGFR exon 20 insertion NPG (H773_V774insNPG) (Homo sapiens, UniProt P00533, INS772GNP)
- Sequence (P00533 with tags, fused parts or gaps INS772GNP): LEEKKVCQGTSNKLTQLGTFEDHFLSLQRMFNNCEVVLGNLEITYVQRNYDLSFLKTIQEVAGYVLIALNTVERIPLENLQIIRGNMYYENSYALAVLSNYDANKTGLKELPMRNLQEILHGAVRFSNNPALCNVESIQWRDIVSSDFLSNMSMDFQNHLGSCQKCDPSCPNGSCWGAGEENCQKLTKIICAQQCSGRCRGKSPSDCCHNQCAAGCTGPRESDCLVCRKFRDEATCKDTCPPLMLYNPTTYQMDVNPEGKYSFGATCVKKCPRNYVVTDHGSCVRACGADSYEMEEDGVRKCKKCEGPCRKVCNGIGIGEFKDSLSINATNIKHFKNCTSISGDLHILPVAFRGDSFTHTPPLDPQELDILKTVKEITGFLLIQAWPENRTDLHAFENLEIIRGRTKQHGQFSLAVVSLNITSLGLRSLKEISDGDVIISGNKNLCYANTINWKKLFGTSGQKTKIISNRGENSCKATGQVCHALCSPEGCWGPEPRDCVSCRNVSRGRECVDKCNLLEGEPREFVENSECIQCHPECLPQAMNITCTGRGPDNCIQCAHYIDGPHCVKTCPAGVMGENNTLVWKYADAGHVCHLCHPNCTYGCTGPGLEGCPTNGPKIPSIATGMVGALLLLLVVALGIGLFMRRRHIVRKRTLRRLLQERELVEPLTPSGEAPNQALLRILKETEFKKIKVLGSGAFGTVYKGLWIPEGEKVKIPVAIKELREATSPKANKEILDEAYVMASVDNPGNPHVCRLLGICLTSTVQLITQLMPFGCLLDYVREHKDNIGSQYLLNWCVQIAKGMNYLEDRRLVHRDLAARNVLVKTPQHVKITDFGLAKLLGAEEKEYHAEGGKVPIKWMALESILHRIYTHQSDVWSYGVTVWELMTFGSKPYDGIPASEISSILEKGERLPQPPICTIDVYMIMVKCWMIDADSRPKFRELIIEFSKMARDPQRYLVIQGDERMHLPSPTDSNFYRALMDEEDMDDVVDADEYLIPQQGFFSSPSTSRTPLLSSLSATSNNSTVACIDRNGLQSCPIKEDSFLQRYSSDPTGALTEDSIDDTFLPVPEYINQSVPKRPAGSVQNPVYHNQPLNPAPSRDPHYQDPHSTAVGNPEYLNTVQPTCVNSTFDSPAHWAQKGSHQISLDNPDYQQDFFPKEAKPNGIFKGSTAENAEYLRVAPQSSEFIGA
- METHOD_NOTES: Ba/F3-EGFR-Exon20-NPG cell anti-proliferative assay (CellTiter 96 MTS, 72 h)
- SETTINGS: Ba/F3-EGFR-Exon20-NPG cells
pIC50: −log10 of the molar value.
ENDPOINT_NAME: pIC50

Exam item: Which measured pIC50 value corresponds to `C=CC(=O)Nc1cc(Nc2nccc(-c3c(-c4ncccn4)n4c5c(cccc35)CCC4)n2)c(OC)cc1N(C)CCN(C)C` ?
Marked response: 6.30 to 7.00

Exam item: Quick check: pIC50 of `C=CC(=O)Nc1cc(Nc2ncc(-c3ncc[nH]3)c(-c3cn4c5c(cccc35)CCC4)n2)c(OC)cc1N(C)CCN(C)C` ?
Marked response: 6.30 to 7.00

Exam item: Given `C=CC(=O)Nc1cc(Nc2ncc(-c3nnc(C)o3)c(-c3cn4c5c(cccc35)CCC4)n2)c(OC)cc1N(C)CCN(C)C` , state its recorded pIC50.
Marked response: > 7.00

Exam item: Record request: pIC50 value, item `C#Cc1cnc(Nc2cc(NC(=O)C=C)c(N(C)CCN(C)C)cc2OC)nc1-c1cn2c3c(cccc13)CCC2`
Marked response: > 7.00

Exam item: Param item = `C=CC(=O)Nc1cc(Nc2ncc(CC)c(-c3cn4c5c(cccc35)OCC4)n2)c(OC)cc1N(C)CCN(C)C` ; retrieve measured pIC50.
Marked response: > 7.00

Exam item: // query pIC50 value for entry `C=CC(=O)Nc1cc(Nc2ncc(C#N)c(-c3cn4c5c(cccc35)CCC4)n2)c(OC)cc1N1CC[C@H](N(C)C)C1`
Marked response: > 7.00

Exam item: # query: pIC50 of entry `C=CC(=O)Nc1cc(Nc2ncc(Cl)c(-c3nn4c5c(cccc35)OCC4)n2)c(OC)cc1N(C)CCN(C)C`
Marked response: > 7.00

* * *

Assign IC50 to each entry below.
- EXPERIMENTAL_TARGET: Her2 exon 20 YVMA insertion (A775_G776ins YVMA) (Homo sapiens, UniProt P04626, INS775YVMA)
- Sequence (P04626 with tags, fused parts or gaps INS775YVMA): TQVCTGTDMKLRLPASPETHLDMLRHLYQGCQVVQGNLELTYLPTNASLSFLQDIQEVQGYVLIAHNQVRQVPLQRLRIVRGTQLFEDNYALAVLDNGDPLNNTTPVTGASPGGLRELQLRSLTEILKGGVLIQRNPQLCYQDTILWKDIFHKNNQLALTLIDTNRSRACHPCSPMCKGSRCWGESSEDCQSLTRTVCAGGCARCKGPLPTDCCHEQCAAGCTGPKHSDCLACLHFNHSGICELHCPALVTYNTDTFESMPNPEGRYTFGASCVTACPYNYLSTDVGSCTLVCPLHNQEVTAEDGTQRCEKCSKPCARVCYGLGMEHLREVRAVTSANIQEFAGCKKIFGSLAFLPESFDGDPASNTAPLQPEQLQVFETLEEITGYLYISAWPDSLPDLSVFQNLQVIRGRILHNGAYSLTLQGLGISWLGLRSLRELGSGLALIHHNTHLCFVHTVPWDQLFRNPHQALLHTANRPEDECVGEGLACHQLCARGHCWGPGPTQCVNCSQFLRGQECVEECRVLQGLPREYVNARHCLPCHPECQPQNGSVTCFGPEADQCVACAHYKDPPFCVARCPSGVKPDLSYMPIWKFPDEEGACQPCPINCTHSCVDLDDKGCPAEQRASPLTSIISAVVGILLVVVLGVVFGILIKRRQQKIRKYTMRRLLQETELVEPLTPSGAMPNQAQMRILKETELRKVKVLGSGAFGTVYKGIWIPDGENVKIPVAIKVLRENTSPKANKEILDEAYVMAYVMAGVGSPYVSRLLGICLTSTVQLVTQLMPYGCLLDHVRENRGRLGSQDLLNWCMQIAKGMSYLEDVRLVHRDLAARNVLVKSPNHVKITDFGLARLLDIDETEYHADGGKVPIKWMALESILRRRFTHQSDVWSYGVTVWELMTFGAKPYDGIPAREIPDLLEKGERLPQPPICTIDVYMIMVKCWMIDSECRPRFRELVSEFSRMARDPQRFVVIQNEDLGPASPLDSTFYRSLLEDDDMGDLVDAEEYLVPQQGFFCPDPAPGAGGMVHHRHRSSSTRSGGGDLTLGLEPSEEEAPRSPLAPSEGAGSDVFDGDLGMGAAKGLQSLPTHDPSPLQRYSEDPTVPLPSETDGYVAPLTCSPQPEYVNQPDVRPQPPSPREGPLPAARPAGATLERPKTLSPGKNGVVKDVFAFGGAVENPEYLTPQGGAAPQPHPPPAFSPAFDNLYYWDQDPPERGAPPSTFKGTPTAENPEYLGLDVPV
- METHOD_NOTES: Ba/F3-Her2 Exon20 YVMA cell anti-proliferative assay (CellTiter 96 MTS, 72 h)
- SETTINGS: Ba/F3-Her2 Exon20 YVMA cells

Exam item: # IC50 lookup, item `C=CC(=O)Nc1cc(Nc2ncc(CCC3CCCC3)c(-c3cn4c5c(cccc35)CCC4)n2)c(OC)cc1N(C)CCN(C)C`
Marked response: 500 to 1000 nM

Exam item: Requested field: IC50. Item: `C=CC(=O)Nc1cc(Nc2ncc(CC)c(-c3cn4c5c(cccc35)N(C)C(=O)C4)n2)c(OC)cc1N(C)CCN(C)C`
Marked response: < 100 nM

Exam item: Requested read-out: IC50. Entry: `C=CC(=O)Nc1cc(Nc2nccc(-c3c(N4CCN(C)C(=O)C4)n4c5c(cccc35)CCC4)n2)c(OC)cc1N(C)CCN(C)C`
Marked response: > 1000 nM

Exam item: Entry under review: `C=CC(=O)Nc1cc(Nc2ncc(Cl)c(-c3cn4c5c(cccc35)CCC4)n2)c(OC)cc1N(C)CCN1CCCC1` . Reported IC50?
Marked response: 100 to 500 nM

Exam item: What value of measured IC50 is listed for `C=CC(=O)Nc1cc(Nc2ncc(-c3cc(C)nn3C)c(-c3cn4c5c(cccc35)CCC4)n2)c(OC)cc1N(C)CCN(C)C` ?
Marked response: < 100 nM

Exam item: Need IC50 of `C=CC(=O)Nc1cc(Nc2ncc(CCCOC)c(-c3cn4c5c(cccc35)CCC4)n2)c(OC)cc1N(C)CCN(C)C` , thanks.
Marked response: < 100 nM

Exam item: Given the compound `C=CC(=O)Nc1cc(Nc2ncc(Cl)c(-c3nn4c5c(cccc35)OCC4)n2)c(OC)cc1N(C)CCN(C)C` , what is its reported IC50?
Marked response: 100 to 500 nM

Exam item: Would you mind telling me what IC50 value was observed for `C=CC(=O)Nc1cc(Nc2ncc(C(C)C)c(-c3cn4c5c(cccc35)CCC4)n2)c(OC)cc1N(C)CCN(C)C` ?
Marked response: 500 to 1000 nM

Exam item: Field request: IC50 | item: `C=CC(=O)Nc1cc(Nc2ncc(C#N)c(-c3cn4c5c(cccc35)OCC4)n2)c(OC)cc1N1CC[C@@H](N(C)C)C1`
Marked response: 100 to 500 nM

Exam item: Quick check: IC50 of `C=CC(=O)Nc1cc(Nc2ncc(Cl)c(-c3cn4c5c(cccc35)OCC4)n2)c(C)cc1N(C)CCN1CCCC1` ?
Marked response: 100 to 500 nM

Exam item: Return reported IC50; argument: `C=CC(=O)Nc1cc(Nc2ncc(-c3ncccn3)c(-c3cn4c5c(cccc35)CCC4)n2)c(OC)cc1N(C)CCN(C)C`
Marked response: > 1000 nM

Exam item: Tell me the measured IC50 of `C=CC(=O)Nc1cc(Nc2ncc(C#N)c(-c3cn4c5c(cccc35)N(C)C(=O)C4)n2)c(OC)cc1N(C)CCN(C)C` , please.
Marked response: < 100 nM

Exam item: Recorded IC50 for `C=CC(=O)Nc1cc(Nc2ncc(C(=O)NCCO)c(-c3cn4c5c(cccc35)CCC4)n2)c(OC)cc1N(C)CCN(C)C` , please?
Marked response: > 1000 nM

Exam item: # query: IC50 of entry `C=CC(=O)Nc1cc(Nc2nccc(-c3c(N4CC[C@@H](O)C4)n4c5c(cccc35)CCC4)n2)c(OC)cc1N(C)CCN(C)C`
Marked response: 100 to 500 nM

Exam item: Could you tell me which IC50 is on file for `C=CC(=O)Nc1cc(Nc2ncc(-c3nnc(C)o3)c(-c3cn4c5c(cccc35)CCC4)n2)c(OC)cc1N(C)CCN(C)C` ?
Marked response: < 100 nM

Exam item: Fill in the blank: the reported IC50 of `COc1cc(F)c(NC(=O)/C=C/CN(C)C)cc1Nc1ncc(Cl)c(-c2cn3c4c(cccc24)OCC3)n1` is ____.
Marked response: > 1000 nM

Exam item: Need IC50 of `C=CC(=O)Nc1cc(Nc2ncc(C(=C)C)c(-c3cn4c5c(cccc35)CCC4)n2)c(OC)cc1N(C)CCN(C)C` , thanks.
Marked response: < 100 nM

Exam item: Requested read-out: IC50. Entry: `C=CC(=O)Nc1cc(Nc2ncc(C(N)=O)c(-c3cn4c5c(cccc35)CCC4)n2)c(OC)cc1N(C)CCN(C)C`
Marked response: 100 to 500 nM

Exam item: Could you tell me which IC50 is on file for `C=CC(=O)Nc1cc(Nc2ncc(-c3ncco3)c(-c3cn4c5c(cccc35)CCC4)n2)c(OC)cc1N(C)CCN(C)C` ?
Marked response: < 100 nM

Exam item: Sample `C=CC(=O)Nc1cc(Nc2ncc(C(=O)OC)c(-c3nn4c5c(cccc35)OCC4)n2)c(OC)cc1N(C)CCN(C)C` — what was its IC50?
Marked response: < 100 nM

Exam item: What does the data say about its IC50? Entry: `C=CC(=O)Nc1cc(Nc2ncc(/C=C/C#N)c(-c3cn4c5c(cccc35)CCC4)n2)c(OC)cc1N(C)CCN(C)C`
Marked response: < 100 nM

Exam item: Would you mind telling me what IC50 value was observed for C=CC(=O)Nc1cc(Nc2nccc(-c3c(N4CCC(F)C4)n4c5c(cccc35)CCC4)n2)c(OC)cc1N(C)CCN(C)C (stereo not drawn) ?
Marked response: 100 to 500 nM

Exam item: Can you share its IC50? I mean this compound: `C=CC(=O)Nc1cc(Nc2ncc(Cl)c(-c3cn4c5c(cccc35)CCC4)n2)c(C)cc1N(C)CCN(C)C`
Marked response: 100 to 500 nM

Exam item: Bench note: what IC50 did `C=CC(=O)Nc1cc(Nc2nccc(-c3cn4c5c(cccc35)OCC4)n2)c(OC)cc1N(C)CCNC` show?
Marked response: 500 to 1000 nM

Exam item: Please look up its IC50: `C=CC(=O)Nc1cc(Nc2ncc(CCP(C)(C)=O)c(-c3cn4c5c(cccc35)CCC4)n2)c(OC)cc1N(C)CCN(C)C`
Marked response: > 1000 nM

Exam item: Query: IC50; subject: `C=CC(=O)Nc1cc(Nc2nccc(-c3cn4c5c(cccc35)CCC4)n2)c(OC)cc1N(C)CCNC`
Marked response: 100 to 500 nM

Exam item: Returns the measured IC50 for the input compound. Input: `C=CC(=O)Nc1cc(Nc2ncc(Cl)c(-c3cn4c5c(cccc35)OCC4)n2)c(C)cc1OCCN1CCCC1`
Marked response: 100 to 500 nM

* * *

- EXPERIMENTAL_TARGET: Her2 exon 20 YVMA insertion (A775_G776ins YVMA) (Homo sapiens, UniProt P04626, INS775YVMA)
- METHOD_NOTES: Ba/F3-Her2 Exon20 YVMA cell anti-proliferative assay (CellTiter 96 MTS, 72 h)
- SETTINGS: Ba/F3-Her2 Exon20 YVMA cells
pIC50: −log10 of the molar value.
ENDPOINT_NAME: pIC50

Exam item: For C=CC(=O)Nc1cc(Nc2nccc(-c3c(-c4ncccn4)n4c5c(cccc35)CCC4)n2)c(OC)cc1N(C)CCN(C)C [Example 109] , what is its reported pIC50?
Marked response: < 6.00

Exam item: Recorded pIC50 for C=CC(=O)Nc1cc(Nc2ncc(C(O)CC)c(-c3cn4c5c(cccc35)CCC4)n2)c(OC)cc1N(C)CCN(C)C (stereo not shown) [Example 73] , please?
Marked response: 6.30 to 7.00

Exam item: // returns reported pIC50 for input C=CC(=O)Nc1cc(Nc2ncc(Cl)c(-c3cn4c5c(cccc35)CCC4)n2)c(OC)cc1N(C)CCN(C)C [Example 11]
Marked response: 6.30 to 7.00

Exam item: Need pIC50 of C=CC(=O)Nc1cc(Nc2nccc(-c3cn4c5c(cccc35)CCC4)n2)c(OC)cc1N(C)CCN(C)C [Example 10] , thanks.
Marked response: 6.30 to 7.00
